# TEST PROTOCOL: fluorescence interference in NS3h DNA assay – biochemical, ChemBridge library, Cy5 readout, artefact control for HCV NS3 helicase inhibitor project (AID 720488)
# CONDITION LABEL: Cy5-dT15 DNA with NS3h, at 100 µM, actives lie on both sides, signal over control mean, under 1 quenches
Among all 16,000 compounds or so, about 960 (6%) were called active. Shown is part of a subset that was picked to be rich in actives.
Threshold rule: fluorescence interference ratio greater than or equal to 0.9 is t; below that, f.

Worked set:
molecule=O=[N+]([O-])c1ccc(N2CCN(S(=O)(=O)c3ccccc3)CC2)cc1N1CCOCC1 class_assignment=t
molecule="CCOCCOCCC(C(=O)O)P(=O)(c1ccccc1)c1ccccc1 (stereo unspecified)" class_assignment=f
molecule=O=C1/C(=C\c2cn(Cc3ccccc3F)c3ccccc23)SC(=S)N1c1ccc([N+](=O)[O-])cc1 class_assignment=t

[in] Quick check, fluorescence interference ratio >= 0.9? CCOc1ccc(C(=O)Nc2ccncc2)cc1
[out] t

[in] Quick check, fluorescence interference ratio >= 0.9? CCOc1ccc(C(=O)Nc2cc3nn(-c4ccc(C)cc4)nc3cc2C)cc1[N+](=O)[O-]
[out] t

[in] Quick check, fluorescence interference ratio >= 0.9? COc1ccc(OC)c(N2C(=O)NC(=O)C(=Cc3ccc(C)o3)C2=O)c1
[out] t

[in] Quick check, fluorescence interference ratio >= 0.9? CCOc1cc(/C=C(\C#N)c2nc3ncc(Br)cc3[nH]2)ccc1O
[out] f

[in] Quick check, fluorescence interference ratio >= 0.9? C=CCc1ccccc1OCCn1cc(/C=C2/SC(=S)N(CC)C2=O)c2ccccc21
[out] t

[in] Quick check, fluorescence interference ratio >= 0.9? COc1cc(C(=O)N2CCC(Cc3ccccc3)CC2)c([N+](=O)[O-])cc1OC
[out] f

[in] Quick check, fluorescence interference ratio >= 0.9? CNC(=O)C1CC(=O)N(c2ccc(F)cc2)C1 (stereo unspecified)
[out] t
